Where do these numbers come from? They come from patent US10239849B2.

biological target: glutathione-S-transferase (GST) tagged LXRalpha LBD (ligand binding domain) (Homo sapiens, UniProt Q13133); test: LanthaScreen TR-FRET Liver X Receptor Coactivator Assay, LXR alpha-LBD; conditions: potency (Inflection Point) of co-activator recruitment, TR-FRET; read-out: LXR alpha IP
pEC50: −log10 of the molar value.
measured-endpoint: pEC50

compound="CC1CN(c2ncc(-c3ccc(C(=O)N(C)C)c(Cl)c3)cc2C#N)CCN1C(=O)OC(C)(C)C (centres unmarked) [Example 8-6]" result_number=4.89
compound="CN(C)C(=O)c1ccc(-c2ccc(N3CC4CCC(C3)N4S(=O)(=O)c3c(Cl)cccc3Cl)c(Cl)c2)cc1Cl [Example 8-16]" result_number=6.24
compound="CC(C)(C)OC(=O)N1CCN(c2ncc(-c3ccc(C(=O)N(CCO)CCO)c(Cl)c3)cc2C#N)CC1 [Example 5-19]" result_number=5.53
compound="CN(C)C(=O)c1ccc(-c2cnc(N3CCN(C(=O)OCc4ccccc4)CC3)c(C#N)c2)cc1Cl [Example 3-14]" result_number=5.32
compound="CCCC(O)(C(=O)N1CCN(c2ncc(-c3ccc(C(=O)N(C)C)c(Cl)c3)cc2C#N)CC1)C(F)(F)C(F)(F)F (centres unmarked) [Example 2-36]" result_number=5.29
compound="CN(C)C(=O)c1ccc(-c2ccc(N3CCN(C(=O)OC(C)(C)C)CC3)c(C#N)c2)cc1Cl [Example 8-15]" result_number=5.41
compound="CN(C)C(=O)c1ccc(-c2cnc(N3CCN(S(=O)(=O)c4ccccc4)CC3)c(C#N)c2)cc1Cl [Example 1-16]" result_number=4.30
compound="CCC(C)S(=O)(=O)N1CCN(c2ncc(-c3ccc(C(=O)N(C)C)c(Cl)c3)cc2C#N)CC1 (centres unmarked) [Example 1-4]" result_number=4.31
compound="CN(C)C(=O)c1ccc(-c2ccc(N3CC4CCC3CN4C(=O)OC(C)(C)C)cc2)cc1Cl (centres unmarked) [Example 8-4]" result_number=5.82
compound="CN(C)C(=O)c1ccc(-c2ccc(N3CCN(S(=O)(=O)c4c(Cl)cccc4C(F)(F)F)CC3)c(Cl)c2)cc1Cl [Example 4-9]" result_number=5.38
compound="CN(CC#N)C(=O)c1ccc(-c2cnc(N3CCN(C(=O)OC(C)(C)C)CC3)c(C#N)c2)cc1Cl [Example 5-8]" result_number=4.83
compound="CN(C)C(=O)c1ccc(-c2cnc(N3CCN(C(=O)Cc4ccccc4)CC3)c(C#N)c2)cc1Cl [Example 2-7]" result_number=5.17
compound="CN(CCn1cncn1)C(=O)c1ccc(-c2cnc(N3CCN(C(=O)[C@](O)(c4ccccc4)C(F)(F)F)CC3)c(C#N)c2)cc1Cl [Example 6-1]" result_number=5.93
compound="CN(C)C(=O)c1ccc(-c2cnc(N3CCN(C(=O)[C@](O)(c4ccccc4)C(F)(F)F)CC3)c(C#N)c2)cc1Cl [Example 2-2]" result_number=6.21

* * *

Molecular target: glutathione-S-transferase (GST) tagged LXRalpha LBD (ligand binding domain) (Homo sapiens)
Construct: purchased Invitrogen pv4655
Sequence (Q13133 209-447 limits assumed): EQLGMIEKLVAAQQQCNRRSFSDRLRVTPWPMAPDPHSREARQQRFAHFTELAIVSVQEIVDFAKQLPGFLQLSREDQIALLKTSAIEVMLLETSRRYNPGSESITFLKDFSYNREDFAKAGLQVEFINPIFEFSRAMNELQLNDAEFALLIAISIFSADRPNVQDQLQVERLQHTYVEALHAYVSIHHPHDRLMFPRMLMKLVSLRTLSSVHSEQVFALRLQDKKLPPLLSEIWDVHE
Test: LanthaScreen TR-FRET Liver X Receptor Coactivator Assay, LXR alpha-LBD
Format: biochemical
Settings: efficacy in relation to reference dual agonist T1317; read-out: LXR alpha activity at max dose (%) (Emax)
Here the recorded Emax is given for each entry.
measured-endpoint: Emax (%)

molecule="CCCCC(C)(C)C(=O)N1CCN(c2ncc(-c3ccc(C(=O)N(C)C)c(Cl)c3)cc2C#N)CC1 [Example 2-12]" unit_text=% result_number=43
molecule="CN(C)C(=O)c1ccc(-c2cnc(N3CC4CCC3CN4C(=O)OC(C)(C)C)c(C#N)c2)cc1Cl (stereo not shown) [Example 8-8]" unit_text=% result_number=38
molecule="CN(C)C(=O)c1ccc(-c2cc(Cl)c(N3CCN(C(=O)c4ccccc4Cl)CC3)c(Cl)c2)cc1Cl [Example 4-6]" unit_text=% result_number=16
molecule="CN(C)C(=O)c1ccc(-c2ccc(N3CCN(C(=O)OC(C)(C)C)CC3)cc2)cc1Cl [Example 4-11]" unit_text=% result_number=55
molecule="CN(C)C(=O)c1ccc(-c2ccc(N3CCN(C(=O)c4c(F)cccc4Cl)CC3)c(Cl)c2)cc1Cl [Example 4-5]" unit_text=% result_number=63
molecule="CN(C)C(=O)c1ccc(-c2cnc(N3CCN(C(=O)OC(C)(C)C)CC3Cc3ccccc3)c(C#N)c2)cc1Cl (stereo not shown) [Example 8-13]" unit_text=% result_number=78
molecule="CN(C)C(=O)c1ccc(-c2cnc(N3CCN(C(=O)[C@H](O)C(F)(F)F)CC3)c(C#N)c2)cc1Cl [Example 2-11]" unit_text=% result_number=30

* * *

Items are presented alongside their recorded pEC50.
target: glutathione-S-transferase (GST) tagged LXRalpha LBD (ligand binding domain) (Homo sapiens); experiment: LanthaScreen TR-FRET Liver X Receptor Coactivator Assay, LXR alpha-LBD; details: potency (Inflection Point) of co-activator recruitment, TR-FRET; read-out: LXR alpha IP
pEC50: −log10 of the molar value.
measured-endpoint: pEC50

compound="CN(C)C(=O)c1ccc(-c2cnc(N3CC4CCC(C3)N4C(=O)OC(C)(C)C)c(C#N)c2)cc1Cl [Example 8-7]" target_system="glutathione-S-transferase (GST) tagged LXRalpha LBD (ligand binding domain) (Homo sapiens)" measured_endpoint=pEC50 result_number=5.79
compound="CNC(=O)c1ccc(-c2cnc(N3CCN(C(=O)C(C)(C)C)CC3)c(C#N)c2)cc1Cl [Example 6-2]" target_system="glutathione-S-transferase (GST) tagged LXRalpha LBD (ligand binding domain) (Homo sapiens)" measured_endpoint=pEC50 result_number=4.95
compound="CN(CC(O)c1ccc(O)cc1)C(=O)c1ccc(-c2cnc(N3CCN(C(=O)OC(C)(C)C)CC3)c(C#N)c2)cc1Cl (stereo not shown) [Example 5-31]" target_system="glutathione-S-transferase (GST) tagged LXRalpha LBD (ligand binding domain) (Homo sapiens)" measured_endpoint=pEC50 result_number=5.07
compound="CCC(C)(C)C(=O)N1CCN(c2ncc(-c3ccc(C(=O)N(C)C)c(Cl)c3)cc2C#N)CC1 [Example 2-5]" target_system="glutathione-S-transferase (GST) tagged LXRalpha LBD (ligand binding domain) (Homo sapiens)" measured_endpoint=pEC50 result_number=4.95
compound="CN(C)C(=O)c1ccc(-c2cnc(N3CCN(C(=O)C4Cc5ccccc54)CC3)c(C#N)c2)cc1Cl (stereo not shown) [Example 2-13]" target_system="glutathione-S-transferase (GST) tagged LXRalpha LBD (ligand binding domain) (Homo sapiens)" measured_endpoint=pEC50 result_number=5.09
compound="CC(C)C(O)(C(=O)N1CCN(c2ncc(-c3cc(Cl)c(C(=O)N(C)C)c(Cl)c3)cc2C#N)CC1)C(F)(F)F (single isomer, unassigned) [Example 7-5]" target_system="glutathione-S-transferase (GST) tagged LXRalpha LBD (ligand binding domain) (Homo sapiens)" measured_endpoint=pEC50 result_number=6.03
compound="C=CCN(C(=O)c1ccc(-c2cnc(N3CCN(C(=O)OC(C)(C)C)CC3)c(C#N)c2)cc1Cl)C1CCS(=O)(=O)C1 (stereo not shown) [Example 5-32]" target_system="glutathione-S-transferase (GST) tagged LXRalpha LBD (ligand binding domain) (Homo sapiens)" measured_endpoint=pEC50 result_number=4.62

* * *

target: glutathione-S-transferase (GST) tagged LXRbeta LBD (ligand binding domain) (Homo sapiens, UniProt P55055); test: LanthaScreen TR-FRET Liver X Receptor Coactivator Assay, LXR beta-LBD; details: potency (Inflection Point) of co-activator recruitment, TR-FRET; read-out: LXR beta IP
Sequence (P55055 222-460 limits assumed): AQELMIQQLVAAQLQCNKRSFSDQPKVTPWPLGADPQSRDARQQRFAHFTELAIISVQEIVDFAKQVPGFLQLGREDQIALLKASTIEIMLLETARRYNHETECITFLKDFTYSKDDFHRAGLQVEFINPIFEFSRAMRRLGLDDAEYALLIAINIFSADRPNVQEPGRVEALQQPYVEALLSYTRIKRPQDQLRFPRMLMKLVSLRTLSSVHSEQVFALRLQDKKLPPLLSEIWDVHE
measured-endpoint: EC50

structure_smiles_string=CN(C)C(=O)c1ccc(-c2cnc(N3CCN(C(=O)C(=O)C(F)(F)F)CC3)c(C#N)c2)cc1Cl measured_endpoint=EC50 result="245 nM"
structure_smiles_string=CN(C)C(=O)c1ccc(-c2cnc(N3CCN(C(=O)OC(C)(C)C)CC3)c(C#N)c2)cc1C1CC1 measured_endpoint=EC50 result="676 nM"
structure_smiles_string=Cc1ccccc1COC(=O)N1CCN(c2ncc(-c3ccc(C(=O)N(C)C)c(Cl)c3)cc2C#N)CC1 measured_endpoint=EC50 result="87 nM"
structure_smiles_string=CC(C)(C)OC(=O)N1CCN(c2ncc(-c3ccc(C(=O)N4CCC(O)CC4)c(Cl)c3)cc2C#N)CC1 measured_endpoint=EC50 result="415 nM"

* * *

Molecular target: glutathione-S-transferase (GST) tagged LXRalpha LBD (ligand binding domain) (Homo sapiens, UniProt Q13133)
Construct: purchased Invitrogen pv4655
Sequence (Q13133 209-447 limits assumed): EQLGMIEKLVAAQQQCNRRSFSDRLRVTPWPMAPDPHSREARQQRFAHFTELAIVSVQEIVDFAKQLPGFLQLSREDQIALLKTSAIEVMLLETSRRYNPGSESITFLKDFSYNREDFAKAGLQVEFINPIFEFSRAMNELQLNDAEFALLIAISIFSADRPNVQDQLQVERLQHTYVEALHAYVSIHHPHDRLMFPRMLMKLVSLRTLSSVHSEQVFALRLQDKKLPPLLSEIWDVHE
Test: LanthaScreen TR-FRET Liver X Receptor Coactivator Assay, LXR alpha-LBD
Assay type: biochemical
Settings: efficacy in relation to reference dual agonist T1317; read-out: LXR alpha activity at max dose (%) (Emax)
measured-endpoint: Emax (%)

molecule="CC(C)(C)OC(=O)N1CCN(c2ncc(-c3ccc(C(N)=O)c(Cl)c3)cc2C#N)CC1 [Example 5-2]" result_number=66
molecule="CN(C)C(=O)c1ccc(-c2cnc(N3CCN(C(=O)c4c(F)cccc4F)CC3)c(C#N)c2)cc1Cl [Example 2-1]" result_number=23
molecule="CN(CC(O)c1ccc(O)cc1)C(=O)c1ccc(-c2cnc(N3CCN(C(=O)OC(C)(C)C)CC3)c(C#N)c2)cc1Cl (stereo not shown) [Example 5-31]" result_number=27
molecule="CN(C)C(=O)c1ccc(-c2cnc(N3CCN(S(=O)(=O)C(F)F)CC3)c(C#N)c2)cc1Cl [Example 1-3]" result_number=52
molecule="CN(C)C(=O)c1ccc(-c2ccc(N3CC4CCC(C3)N4C(=O)OC(C)(C)C)c(Cl)c2)cc1Cl [Example 8-10]" result_number=64
molecule="Cc1cccc(COC(=O)N2CCN(c3ncc(-c4ccc(C(=O)N(C)C)c(Cl)c4)cc3C#N)CC2)c1 [Example 3-5]" result_number=57
molecule="CN(C)C(=O)c1ccc(-c2cnc(N3CCN(S(=O)(=O)c4ccccc4Cl)CC3)c(C#N)c2)cc1Cl [Example 1-11]" result_number=51
